tested_target: enzyme FAAH (fatty acid amide hydrolase) (Mus musculus)
Construct: Membrane homogenates are prepared at the time of use by homogenizing the tissues in a Polytron; from tissue; host or cells: mouse brain (minus the cerebellum), membrane homogenate
Sequence (O08914 whole entry): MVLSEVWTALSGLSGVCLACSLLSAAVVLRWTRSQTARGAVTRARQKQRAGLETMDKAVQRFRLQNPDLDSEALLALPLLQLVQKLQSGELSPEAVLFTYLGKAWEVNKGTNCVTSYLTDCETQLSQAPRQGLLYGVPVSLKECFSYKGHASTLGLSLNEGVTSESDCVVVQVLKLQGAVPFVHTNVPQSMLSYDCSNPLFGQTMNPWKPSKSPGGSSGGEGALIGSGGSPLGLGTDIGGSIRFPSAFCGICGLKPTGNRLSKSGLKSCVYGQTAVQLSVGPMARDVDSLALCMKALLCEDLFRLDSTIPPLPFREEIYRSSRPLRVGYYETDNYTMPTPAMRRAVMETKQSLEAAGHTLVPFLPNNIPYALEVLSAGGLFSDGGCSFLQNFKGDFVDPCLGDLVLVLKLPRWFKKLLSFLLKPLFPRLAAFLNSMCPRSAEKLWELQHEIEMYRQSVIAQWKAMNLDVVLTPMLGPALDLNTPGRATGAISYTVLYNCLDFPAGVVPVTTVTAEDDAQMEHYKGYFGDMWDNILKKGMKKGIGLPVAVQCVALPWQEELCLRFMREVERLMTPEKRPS
experimental_details: radioenzymatic assay of FAAH inhibition (hydrolysis of anandamide [1-3H ethanolamine], mouse brain membrane homogenates)
Type: biochemical
settings: 10 μM anandamide, 15 minutes at 25° C., read-out: IC50 (concentration inhibiting by 50% the control enzymatic activity of FAAH)
property_measured: pIC50
pIC50 is a log-scale quantity: -log10 of the concentration expressed in molar.

For the molecule shown here, CNC(=O)COC(=O)NCC1CCN(CCOc2ccc(Cl)cc2Cl)CC1 [Compound 77] , give the reported pIC50.
7.31

* * *

Measured melting point accompanies every entry in the list below.

Consider the following illustrative entries.
CNC(=O)COC(=O)NCCC1CCN(Cc2cc(Cl)cc(Cl)c2)CC1 : 124 to 126 °C
CNC(=O)COC(=O)NCCC1CCN(CCOc2ccc(Cl)cc2)CC1 : 109 to 113 °C

For the compound shown here, CNC(=O)COC(=O)NCCC1CCN(Cc2ccc(F)c(Cl)c2)CC1 , give the reported melting point.
112 to 114 °C

Continue with CNC(=O)COC(=O)NCCC1CCN(Cc2ccc(Br)cc2)CC1
107 to 111 °C

Continue with CNC(=O)COC(=O)NCCC1CCN(Cc2ccc3ccccc3c2)CC1
87 to 93 °C

* * *

Measured melting point accompanies every entry in the list below.

Consider the following illustrative entries.
CNC(=O)COC(=O)NCCC1CCN(Cc2ccc(C(F)(F)F)cc2)CC1 [Compound 14] : 116 to 120 °C
CNC(=O)COC(=O)NCCC1CCN(Cc2ccc(Cl)c(Cl)c2)CC1 [Compound 20] : 101 to 105 °C
CNC(=O)COC(=O)NCCC1CCN(Cc2ccc(Cl)cc2Cl)CC1 [Compound 18] : 117 to 119 °C

For the compound shown here, CNC(=O)COC(=O)NCCC1CCN(Cc2ccc(Oc3ccc(Cl)c(F)c3)cc2)CC1 [Compound 28] , give the reported melting point.
109 to 111 °C

Continue with CNC(=O)COC(=O)NCCC1CCN(Cc2ccc(F)cc2Cl)CC1 [Compound 100]
108 to 110 °C

Continue with CNC(=O)COC(=O)NCCC1CCN(CCc2cc(-c3ccc(Cl)cc3)no2)CC1 [Compound 120]
135 to 137 °C

Continue with CNC(=O)COC(=O)NCCC1CCN(Cc2cccc3ccccc23)CC1 [Compound 29]
86 to 88 °C

* * *

Measured melting point accompanies every entry in the list below.
Where a name gives a salt, the structure may show the parent alone.

Consider the following illustrative entries.
CNC(=O)COC(=O)NCCC1CCN(Cc2ccc(-c3ccc(F)cc3)cc2Cl)CC1 : 98 to 102 °C
CNC(=O)COC(=O)NCCC1CCN(Cc2cc(F)cc(C#N)c2)CC1 : 132 to 134 °C
CNC(=O)COC(=O)NC1CCN(CCOc2ccc(Cl)cc2Cl)CC1 : 115 to 119 °C
CNC(=O)COC(=O)NCCC1CCN(C(C)c2cccc(OC(F)(F)F)c2)CC1 (centres unmarked) (as salt: HCl) : 169 to 171 °C
CCOc1ccc(CCN2CCC(CCNC(=O)OCC(=O)NC)CC2)cc1 : 118 to 120 °C
CNC(=O)COC(=O)NCCC1CCN(CCCc2ccc(OC)cc2)CC1 (as salt: HCl) : 118 to 120 °C
CNC(=O)COC(=O)NCC1CCN(CCc2ccc(F)cc2OC)CC1 : 126 to 128 °C
CNC(=O)COC(=O)NCCC1CCN(Cc2cc(-c3ccc(Cl)cc3)no2)CC1 : 169 to 171 °C

For the molecule shown here, CNC(=O)COC(=O)NCCC1CCN(CCOc2ccc(F)cc2)CC1 , give the reported melting point.
125 to 129 °C

Continue with CNC(=O)COC(=O)NCCC1CCN(Cc2cc(Cl)ccc2Cl)CC1
125 to 127 °C

Continue with CNC(=O)COC(=O)NCCC1CCN(Cc2cc(C)cc(Cl)c2)CC1
79 to 81 °C

Continue with CNC(=O)COC(=O)NCCC1CCN(Cc2cccc(OC(C)(C)C)c2)CC1
66 to 70 °C

Continue with CNC(=O)COC(=O)NCCC1CCN(CCc2ccccc2Cl)CC1 (as salt: HCl)
121 to 123 °C

Continue with CNC(=O)COC(=O)NCCC1CCN(CCc2c(F)cccc2Cl)CC1
88 to 90 °C

Continue with CNC(=O)COC(=O)NCCC1CCN(Cc2ccc(OC(F)(F)F)cc2)CC1
109 to 111 °C

* * *

property_measured: melting point

Consider the following illustrative entries.
CNC(=O)COC(=O)NCCC1CCN(Cc2cccc(Cl)c2Cl)CC1 : 114 to 116 °C
CNC(=O)COC(=O)NCCC1CCN(Cc2cccc(Oc3ccc(F)cc3)c2)CC1 : 79 to 81 °C
CNC(=O)COC(=O)NCCC1CCN(Cc2cccc(C(F)(F)F)c2)CC1 : 90 to 92 °C
CNC(=O)COC(=O)NCCC1CCN(Cc2ccccn2)CC1 : 104 to 106 °C
CNC(=O)COC(=O)NCCC1CCN(Cc2ccc(-c3ccc(F)cc3)cc2F)CC1 : 143 to 145 °C
CNC(=O)COC(=O)NCCC1CCN(Cc2ncc(-c3ccc(Cl)cc3)o2)CC1 : 124 to 126 °C

# ---- query molecule ----
For the molecule shown here, CNC(=O)COC(=O)NCCC1CCN(CCc2ccc(F)cc2)CC1 , give the reported melting point.
122 to 124 °C

* * *

Measured melting point accompanies every entry in the list below.

CNC(=O)COC(=O)NCCC1CCN(Cc2ccc(-c3ccccc3)cc2)CC1 [Compound 25] : 106 to 110 °C
CNC(=O)COC(=O)NCCC1CCN(Cc2nc(-c3ccc(C(F)(F)F)cc3)cs2)CC1 [Compound 106] : 161 to 163 °C
CNC(=O)COC(=O)NCCC1CCN(Cc2cccc(Cl)c2F)CC1 [Compound 23] : 104 to 106 °C

# ---- query compound ----
For the compound shown here, CNC(=O)COC(=O)NCCC1CCN(Cc2cc(F)ccc2Cl)CC1 [Compound 22] , give the reported melting point.
102 to 104 °C
